Cited source for all entries: patent US8476298B2

Target: Flt-3 (baculovirus expressed human Flt-3 kinase domain R571-S993) (Homo sapiens);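 also: Luciferase-coupled chemiluminescent kinase assay, activity read as percent ATP left after a 3 h reaction at room temperature, ATP near KM, 10-point dose-response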
Construct: human Flt-3 kinase domain R571-S993; host or cells: baculovirus expression
Sequence (P36888 571-993): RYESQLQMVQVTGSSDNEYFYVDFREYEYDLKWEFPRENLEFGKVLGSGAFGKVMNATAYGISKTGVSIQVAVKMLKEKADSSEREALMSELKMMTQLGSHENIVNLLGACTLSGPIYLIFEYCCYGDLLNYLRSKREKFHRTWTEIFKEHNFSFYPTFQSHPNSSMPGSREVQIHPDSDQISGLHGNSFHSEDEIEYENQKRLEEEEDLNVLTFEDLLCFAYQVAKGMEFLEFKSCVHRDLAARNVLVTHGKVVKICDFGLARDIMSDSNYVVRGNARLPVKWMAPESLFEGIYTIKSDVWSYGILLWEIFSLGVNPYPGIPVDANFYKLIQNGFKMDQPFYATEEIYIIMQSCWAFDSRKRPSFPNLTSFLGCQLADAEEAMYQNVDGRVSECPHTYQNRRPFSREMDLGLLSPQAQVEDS
Experiment: biochemical
Settings: read-out: flt3 IC50
endpoint.name: IC50

INSERT INTO results (compound, meas_value) VALUES
  ('COc1cc2c(Oc3ccc(NC(=O)[C@]4(C(=O)Nc5ccc(F)cc5)C[C@@H]4C)cc3F)ccnc2cc1OCCCN1CCN(C)CC1 [Example 354]', '< 50 nM'),
  ('CCN(CC)CCCOc1cc2nccc(Oc3ccc(NC(=O)[C@@]4(C(=O)Nc5ccc(F)cc5)[C@H](C)[C@@H]4C)cc3F)c2cc1OC [Example 374]', '50 to 500 nM'),
  ('O=C(Nc1ccc(F)cc1)C1(C(=O)Nc2ccc(Oc3ccnc4cc(Cl)ccc34)cc2)CC1 [Example 308]', '500 to 5000 nM'),
  ('COc1cc2nccc(Oc3ccc(NC(=O)C4(C(=O)Nc5ccc(F)cc5)CC4)c(C)c3)c2cc1OC [Example 317]', '500 to 5000 nM'),
  ('COc1cc2nccc(Oc3ccc(NC(=O)C4(C(=O)NCCN5CCOCC5)CC4)cc3)c2cc1OC [Example 393]', '50 to 500 nM'),
  ('COc1cc2nccc(Oc3ccc(NC(=O)C4(C(=O)Nc5ccc(F)cc5)CC4)cc3F)c2cc1OCCCN1CCOCC1 [Example 322]', '< 50 nM');
